experimental target: VEGF Receptor 2 (Homo sapiens)
Sequence (P35968 789-1356 limits assumed): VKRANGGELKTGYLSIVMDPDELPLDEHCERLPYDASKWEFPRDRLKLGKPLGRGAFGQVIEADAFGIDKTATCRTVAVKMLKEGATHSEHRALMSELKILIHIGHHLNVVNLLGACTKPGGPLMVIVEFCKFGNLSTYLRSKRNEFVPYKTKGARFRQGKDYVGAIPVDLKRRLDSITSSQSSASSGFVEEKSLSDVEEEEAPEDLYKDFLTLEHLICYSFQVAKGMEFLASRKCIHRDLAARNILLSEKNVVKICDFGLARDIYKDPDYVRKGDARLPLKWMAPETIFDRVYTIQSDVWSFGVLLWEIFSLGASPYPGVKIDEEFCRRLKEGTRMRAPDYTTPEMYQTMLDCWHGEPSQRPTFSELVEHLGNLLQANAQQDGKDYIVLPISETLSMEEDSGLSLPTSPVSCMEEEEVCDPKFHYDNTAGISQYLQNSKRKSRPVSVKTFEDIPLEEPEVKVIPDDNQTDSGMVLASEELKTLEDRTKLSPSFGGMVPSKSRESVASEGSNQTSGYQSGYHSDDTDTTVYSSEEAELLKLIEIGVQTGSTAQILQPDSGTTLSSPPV
endpoint name: IC50 (nM)
Numbers only here, please. The scale is nM.

*Q* Given "CC(C)=CCC[C@]1(C)C=Cc2c(O)c3c(c(CC=C(C)C)c2O1)O[C@]12C(=C[C@@H]4C[C@H]1C(C)(C)O[C@@]2(C/C=C(/C)C(=O)O)C4=O)C3=O" , respond with its IC50.
*A* 0.012

---

Test system: HUVEC cells
test method notes: Tube formation assay on Matrigel
Assay type: cell-based, human
settings: Homo sapiens, HUVEC, 12-16 hours, read-out: Concentration that inhibited tube formation of HUVEC cells by 50%
Protocol: Matrigel (BD Biosciences) were thawed at 4° C. overnight and each well of the prechilled 24-well plates was coated with 100 μl Matrigel and incubated at 37° C. for 45 minutes. […] After 12-16 hours of incubation at 37° C., 5% CO2, endothelial cell tube formation was assessed using an OLYMPUS inverted microscope. Tubular structures were quantified by manual counting of low power fields (25×) and percent inhibition was expressed using untreated wells as 100% (t-test, p<0.001).
pIC50: −log10 of the molar value.
endpoint name: pIC50

*Q* Given "CC(C)=CCC[C@]1(C)C=Cc2c(O)c3c(c(CC=C(C)C)c2O1)O[C@]12C(=C[C@@H]4C[C@H]1C(C)(C)O[C@@]2(C/C=C(/C)C(=O)O)C4=O)C3=O" , respond with its pIC50.
*A* ~7.30
